- study system: T1, recombinant human NMES1 protein (Normal Mucosa of Esophagus Specific 1) (human, UniProt Q9C002 1-83, limits assumed)
- T1 construct: also called rhNMES1; recombinant NMES1 protein
- T1 sequence (Q9C002 whole entry, form in doubt): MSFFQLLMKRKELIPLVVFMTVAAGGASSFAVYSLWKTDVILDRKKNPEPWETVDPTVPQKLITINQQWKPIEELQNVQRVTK
- test details: titration ELISA, plate coated with recombinant NMES1 (1 µg/mL), anti-human IgG Fc HRP detection
measurement label: EC50 (nM)
State just the number; it will be interpreted in nM.

NMES-6 anti-NMES1 monoclonal antibody (antibody, IgG1, V domains shown, also called NM-6; NMES1-6) VH: QVQLVQSGAEVKKPGASVKVSCKASGYTFTSYGISWVRQAPGQGLEWMGWISAYNGNTNYAQKLQGRVTMTTDTSTSTAYMELRSLRSDDTAVYYCARAVGQLAFDYWGQGTLVTVSS VL: QSALNQPPSASGSPGQSVTISCTGTSSDVGGYNYVSWYQQHPGKAPKLMIYEVSKRPSGVPDRFSGSKSGNTASLTVSGLQAEDEADYYCSSYAGSNNLVFGGGTKVTVL; 2.39

Query binder follows.
Per the record, NMES-10 anti-NMES1 monoclonal antibody (antibody, IgG1, V domains shown, also called NM-10; NMES1-10) VH: QVQLVQSGAEVKKPGASVKVSCKASGYTFTSYGISWVRQAPGQGLEWMGWISAYNGNTNYAQKLQGRVTMTTDTSTSTAYMELRSLRSDDTAVYYCARATFGNAFDIWGQGTTVTVSS VL: QSALTQPASVSGSPGQSITISCTGTSSDVGGYNYVSWYQQHPGKAPKLMIYDVSNRPSGVSNRFSGSKSGNTASLTISGLQAEDEADYYCSSYTSSSTLVVFGGGTKVTVL has EC50 of 306
